# Assay Text: Solubility of nintedanib in a representative emulsion system (F70)
# Assay type: physicochemical
# Measurement Parameters: aqueous with cosolvent or surfactant or cyclodextrin; emulsion system: castor oil 1, polysorbate 80 1, polyoxyl-35 castor oil 2, water 95, none in Table 6
Readout Type: solubility

                                smiles_data  readout_type              result
0  COC(=O)c1ccc2c(c1)NC(=O)/C2=C(\Nc1ccc(N(C)C(=O)CN2CCN(C)CC2)cc1)c1ccccc1    solubility  3000 to 5000 µg/mL
